# subject_of_test: Heat shock factor protein 1 (Homo sapiens) (UniProt Q00613)
# Sequence (Q00613 whole entry, looked up): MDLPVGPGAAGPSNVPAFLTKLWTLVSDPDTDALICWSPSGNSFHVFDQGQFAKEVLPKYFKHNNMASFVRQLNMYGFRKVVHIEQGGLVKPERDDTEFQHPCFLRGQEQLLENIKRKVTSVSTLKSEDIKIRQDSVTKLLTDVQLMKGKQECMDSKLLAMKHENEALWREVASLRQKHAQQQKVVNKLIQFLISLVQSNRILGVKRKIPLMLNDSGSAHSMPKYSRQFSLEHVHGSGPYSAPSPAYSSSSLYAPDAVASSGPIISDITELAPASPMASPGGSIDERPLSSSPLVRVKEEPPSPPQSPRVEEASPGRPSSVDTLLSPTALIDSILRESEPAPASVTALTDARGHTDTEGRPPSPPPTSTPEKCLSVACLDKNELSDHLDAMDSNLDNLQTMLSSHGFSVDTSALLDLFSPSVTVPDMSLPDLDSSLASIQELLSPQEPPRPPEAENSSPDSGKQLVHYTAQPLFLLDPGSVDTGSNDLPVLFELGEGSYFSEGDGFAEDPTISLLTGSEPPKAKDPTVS
# assay_comment: ATG_HSE_CIS: Attagene CIS-FACTORIAL HepG2 Assay for human Heat Shock Transcription Factor 1 (HSE) (AID 2282953)
# assay_setup: HepG2 HSE cis-reporter, Attagene RNA transcription; actives raise or lower the signal
Active and inactive are the calls of the source. How the source made its calls: active means hit-call score of the fitted dose curve at least 0.9, where 1 is the maximum; inactive means score below 0.9.
API: response.call in label 1 for active, label 0 for inactive

Field: example entries. Status: answers known.
> print(dat)
                                   compound      cat
1  Cc1cc(SC2=C(O)C[C@@](CCc3ccc(N)cc3)(C(C)C)OC2=O)c(C(C)(C)C)cc1CO  label 0
2                      CN(C)CCCN(C)CCCN(C)C  label 0
3  CN(C)C(=O)NC1(c2ccccc2)CCN(CC[C@@]2(c3ccc(F)c(F)c3)CN(C(=O)c3ccccc3)CCO2)CC1  label 0
4  O=C(N[C@@H](c1ccccc1)[C@@H]1CCCCN1)c1cccc(C(F)(F)F)c1Cl  label 1
5               CC1=C(C)S(=O)(=O)CCS1(=O)=O  label 0

Each compound tested received a call. Report the one for CC(COCC(C)OC(=O)c1ccccc1)OC(=O)c1ccccc1 (stereo unspecified) .
label 0

// outcome(item) with item = Nc1nc(Cl)nc2c1ncn2[C@H]1C[C@H](O)[C@@H](CO)O1
label 0

Hi, do you know how Cc1cc(Cc2ccc(N)c(C)c2)ccc1N came out in this test?
label 0

# lookup: test call for Cn1cnc2c1c(=O)[nH]c(=O)n2C
label 0

* * *

# Read-out: growth arrest and DNA damage 45 (GADD45G), GADD45G (gene 10912)
# assay_comment: LTEA_HepaRG_GADD45G: Life Technologies and Expression Analysis (LTEA) Assay for growth arrest and DNA damage 45 (GADD45G) using HepaRG (AID 2283499)
# assay_setup: mRNA level, 48 h; actives raise or lower the signal
# Method: LTEA_HepaRG is a cell based, multiplexed-readout assay that uses HepaRG, a human liver cell line, with measurements taken at 48 hours after chemical dosing on a 96-well plate.LTEA_HepaRG_GADD45G is one of 102 assay component(s) measured in the LTEA HepaRG cell culture assay. It is a marker of Cell proliferation, survival, death.Data from the assay component LTEA_HepaRG_GADD45G was analyzed into 1 endpoint. […]
The source made the active and inactive calls. How the source made its calls: active means hit-call score of the fitted dose curve at least 0.9, where 1 is the maximum; inactive means score below 0.9.
value_type: AC50

Known AC50 results, listed for orientation:
> print(dat)
                                   molecule  value.type  reported.result
1  CSc1ccc(Oc2ccc(S(N)(=O)=O)cc2CN(C)C)cc1C        AC50   50 µM (active)
2               CC1=C(C)S(=O)(=O)CCS1(=O)=O        AC50         inactive
3              CC(C)COC(=O)CCCCC(=O)OCC(C)C        AC50         inactive
4            CCCCC(CC)CO (stereo not given)        AC50         inactive

// AC50 lookup, molecule = CN(C)CCCN1c2ccccc2Sc2ccc(Cl)cc21 , result: 49.7 µM (active)

* * *

# subject_of_test: Transcriptional activator Myb (Homo sapiens) (UniProt P10242)
# Sequence (P10242 whole entry, looked up): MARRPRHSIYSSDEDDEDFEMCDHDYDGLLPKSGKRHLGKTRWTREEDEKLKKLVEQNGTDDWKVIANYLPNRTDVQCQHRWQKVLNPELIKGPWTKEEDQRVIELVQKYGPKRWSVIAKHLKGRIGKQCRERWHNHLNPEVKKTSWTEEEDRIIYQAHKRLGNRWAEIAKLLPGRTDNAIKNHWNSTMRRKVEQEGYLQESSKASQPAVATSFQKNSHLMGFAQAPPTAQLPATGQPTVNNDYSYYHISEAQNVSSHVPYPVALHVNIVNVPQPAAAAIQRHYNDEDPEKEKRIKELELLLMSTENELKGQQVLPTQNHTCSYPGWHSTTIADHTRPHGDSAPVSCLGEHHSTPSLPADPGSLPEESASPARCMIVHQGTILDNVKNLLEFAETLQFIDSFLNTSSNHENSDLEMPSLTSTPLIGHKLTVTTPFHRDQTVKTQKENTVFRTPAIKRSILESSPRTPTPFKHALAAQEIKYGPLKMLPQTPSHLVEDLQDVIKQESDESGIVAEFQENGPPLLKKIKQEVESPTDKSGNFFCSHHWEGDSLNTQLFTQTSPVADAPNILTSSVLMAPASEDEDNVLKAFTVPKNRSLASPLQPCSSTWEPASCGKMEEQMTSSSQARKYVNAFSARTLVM
# assay_comment: ATG_Myb_CIS: Attagene CIS-FACTORIAL HepG2 Assay for human Myeloblastosis (Myb) Proto-Oncogene Transcription Factor (AID 2282986)
# assay_setup: HepG2 Attagene CIS-FACTORIAL Myb reporter transcription; actives raise or lower the signal
Calls of active or inactive are those of the source. Rule for the calls: active = hit-call score of the fitted dose curve at least 0.9, where 1 is the maximum; inactive = score below 0.9.
Classes to choose from: active, inactive

> print(dat)
                    compound       cat
1  CCCCCCCCCCCCCCOS(=O)(=O)O  inactive

Would you mind telling me which call this test gave O=C(O)CN(CC(=O)O)CC(=O)O ?
active

Which outcome was entered for the compound COc1ccc(OC(F)(F)F)cc1CN[C@H]1CCCN[C@H]1c1ccccc1 in this test?
inactive

Any idea what this test logged for CC(C)NCC(O)c1ccc(O)c(O)c1 (stereo not given) ?
inactive

Recorded call for C=CCCCCCCCCCCCC ?
inactive

Per the records of this test, what outcome belongs to CC(=O)OC1CC(C)OC(C)O1 (stereo not given) ?
inactive

Hi team, can someone confirm the assay call for CS(=O)(=O)c1ccc([C@@H](C[C@H]2CCC(=O)C2)C(=O)Nc2cnccn2)cc1Cl ?
inactive

Hey, what did the test say about O=NO ?
inactive

Per the records of this test, what outcome belongs to Cc1cn([C@H]2C=C[C@@H](CO)O2)c(=O)[nH]c1=O ?
inactive

# fetch the recorded call for CC1=C(C)S(=O)(=O)CCS1(=O)=O here
inactive

Assay result, entry COC(=O)CCCC(=O)OC — outcome?
inactive

Which outcome was assigned to O=C(O)c1[nH]n(-c2ccc(S(=O)(=O)O)cc2)c(=O)c1N=Nc1ccc(S(=O)(=O)O)cc1 in this test?
inactive

Could you check what this test reported for NC=O ?
inactive

Could you please tell me the result logged for CCCCC(CC)CO (stereo not given) in this assay?
inactive

* * *

# subject_of_test: rat Peripheral-type Benzodiazepine Receptor (PBR), Tspo (gene 24230) (UniProt P16257)
# Sequence (P16257 whole entry, looked up): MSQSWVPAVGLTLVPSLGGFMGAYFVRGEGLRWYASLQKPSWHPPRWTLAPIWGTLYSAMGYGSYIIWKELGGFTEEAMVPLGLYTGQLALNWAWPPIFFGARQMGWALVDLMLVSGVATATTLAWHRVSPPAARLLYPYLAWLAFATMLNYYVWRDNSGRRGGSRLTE
# assay_comment: NVS_MP_rPBR: NovaScreen (NVS) Membrane Protein Assay for rat Peripheral-type Benzodiazepine Receptor (PBR) (AID 2283335)
Results filed as inconclusive are left out. The source made the active and inactive calls. The calls were made as follows: active = hit-call score of the fitted dose curve at least 0.9, where 1 is the maximum; inconclusive = response in the unintended direction; inactive = score below 0.9.
Return exactly one item of 1.0 = active, 0.0 = inactive

> print(dat)
                                   compound  cat
1  O=C(N[C@@H](c1ccccc1)[C@@H]1CCCCN1)c1cccc(C(F)(F)F)c1Cl  1.0
2             CCc1nc(N)nc(N)c1-c1ccc(Cl)cc1  0.0
3  Cc1ccc(-c2cc(C(F)(F)F)nn2-c2ccc(S(N)(=O)=O)cc2)cc1  0.0

Next:
Tell me the recorded outcome of this test for CC(COCC(C)OC(=O)c1ccccc1)OC(=O)c1ccccc1 (centres undefined) .
1.0

* * *

# Read-out: CD40, CD40 (gene 958)
# assay_comment: BSK_LPS_CD40: BioMAP Diversity Plus: LPS Assay for CD40 Biomarker Activity (AID 2283076)
# assay_setup: primary human HUVEC with PBMC; actives raise or lower the signal
Calls of active or inactive are those of the source. Rule for the calls: active = hit-call score of the fitted dose curve at least 0.9, where 1 is the maximum; inactive = score below 0.9.
Hi! Could you answer with just one of these? active, inactive

> print(dat)
                            compound.smiles       cat
1  CO[C@@H]1COCC[C@@H]1N[C@@H]1CC[C@@](C(=O)N2CCc3ncc(C(F)(F)F)cc3C2)(C(C)C)C1  inactive

Which outcome was entered for the molecule N[C@@H](Cc1c[nH]c2ccccc12)C(=O)O in this test?
inactive

Dear colleague, could you share the recorded outcome for O=C(NS(=O)(=O)/C=C/c1cccs1)c1ccc(F)cc1Br when you have a moment?
active

* * *

# Read-out: Tissue Factor, F3 (gene 2152)
# assay_comment: BSK_LPS_TissueFactor: BioMAP Diversity Plus: LPS Assay for Tissue Factor Biomarker Activity (AID 2283084)
# assay_setup: primary human HUVEC with PBMC; actives raise or lower the signal
The source made the active and inactive calls. Rule for the calls: active = hit-call score of the fitted dose curve at least 0.9, where 1 is the maximum; inactive = score below 0.9.
Assign a class; possible classes are active, inactive

Worked examples follow.
> print(dat)
                                   compound       cat
1  COC(=O)[C@H]1[C@H]2C[C@@H]3c4[nH]c5cc(OC)ccc5c4CCN3C[C@H]2C[C@@H](OC(=O)c2cc(OC)c(OC)c(OC)c2)[C@@H]1OC    active
2                CC(=O)OCC(COC(C)=O)OC(C)=O  inactive
3  O=C1OC(c2ccc(O)cc2)(c2ccc(O)cc2)c2ccccc21  inactive
4            CCCCC(CC)CO (stereo not given)  inactive

Hi, do you know how CC(C)c1cccc(C(C)C)c1 came out in this test?
inactive

* * *

# assay_comment: BSK_CASM3C_Proliferation: Cell Proliferation Assessment in the BioMAP Diversity Plus: CASM3C Assay (AID 2283047);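 further: sulforhodamine B total protein stain as relative cell number at 560 nm; sub-confluent cells exposed 48 h before staining; fitted both ways against DMSO so gain or loss of cell number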
# assay_setup: primary human coronary artery smooth muscle cells
Calls of active or inactive are those of the source. The calls were made as follows: active = hit-call score of the fitted dose curve at least 0.9, where 1 is the maximum; inactive = score below 0.9.
I would appreciate it if you answered using one of these outcomes: TRUE = active, FALSE = inactive

What was the test verdict on O=Cc1ccccc1C=O ?
FALSE

Test call for this molecule, please: O=C(O)CN(CC(=O)O)CC(=O)O
FALSE

* * *

# Read-out: Insulin Like Growth Factor 1 (IGF1), IGF1 (gene 3479)
# assay_comment: LTEA_HepaRG_IGF1: Life Technologies and Expression Analysis (LTEA) Assay for Insulin Like Growth Factor 1 (IGF1) using HepaRG (AID 2283506)
# assay_setup: mRNA level, 48 h; actives raise or lower the signal
Calls of active or inactive are those of the source. How the source made its calls: active means hit-call score of the fitted dose curve at least 0.9, where 1 is the maximum; inactive means score below 0.9.
One label from this list, please: true (1) = active, false (0) = inactive

Solved cases (4 shown):
> print(dat)
                                   molecule        cat
1             CCc1nc(N)nc(N)c1-c1ccc(Cl)cc1   true (1)
2                      CN(C)CCCN(C)CCCN(C)C  false (0)
3                                 CCCC(=O)O  false (0)
4  CCCC[C@H]1CN(CC2CCOCC2)C(=O)OC12CCN(C1(C)CCN(C(=O)c3c(C)ncnc3C)CC1)CC2  false (0)

Called result for CC(=O)[C@@]1(O)CC[C@H]2[C@@H]3CCC4=CC(=O)CC[C@]4(C)[C@H]3CC[C@@]21C
false (0)

Test call for this molecule, please: COC(=O)CCCC(=O)OC
false (0)

How did this test come out for CC(=O)OC1CC(C)OC(C)O1 (stereo not drawn) ?
false (0)

Per the assay record, what outcome was assigned to COc1ccc(C(=O)Nc2nc3ccccc3c(NCc3ccccc3)c2C#N)cc1 ?
true (1)
